protocol_description: Highest frequency of acute liver toxicity observed during clinical trials, expressed as a percentage. [column '% AIGUE' in source]
assay_setup: human
reported_endpoint: Hepatotoxicity (acute)
Write the figure, then the unit, nothing else.

Example results:
molecule	reported_endpoint	observed
FC(F)(F)C(Cl)Br (stereo unspecified)	Hepatotoxicity (acute)	0%
Cc1ncsc1CCCl	Hepatotoxicity (acute)	0%
Cc1cc(NS(=O)(=O)c2ccc(N)cc2)nc(C)n1	Hepatotoxicity (acute)	0%
CCOC(=O)[C@H](CCc1ccccc1)N[C@@H](C)C(=O)N1[C@H](C(=O)O)C[C@H]2CCCC[C@@H]21	Hepatotoxicity (acute)	0%
NCC1(CC(=O)O)CCCCC1	Hepatotoxicity (acute)	2.4%

Lab note: next molecule to report on.
What does the data say about its Hepatotoxicity (acute)? Entry: N[C@@H](C(=O)N[C@@H]1C(=O)N2C(C(=O)O)=C(Cl)CS[C@H]12)c1ccccc1 [CEFACLOR ANHYDROUS] 2.2%

###

protocol_description: Highest frequency of moderate liver toxicity observed during clinical trials, expressed as a percentage. [column '% BIOL' in source]
assay_setup: human
reported_endpoint: Hepatotoxicity (moderate)
Write the figure, then the unit, nothing else.

Example results:
molecule	Hepatotoxicity (moderate)
CC(C(=O)O)c1cccc(C(=O)c2ccccc2)c1 (stereo not drawn)	2.5%
C#C[C@]1(O)CC[C@H]2[C@@H]3CCC4=CC(=O)CCC4=C3C=C[C@@]21CC	0.8%
O=P(O)(O)C(Sc1ccc(Cl)cc1)P(=O)(O)O	0.9%

What does the data say about its Hepatotoxicity (moderate)? Entry: "C[C@]12CC[C@@H]3c4ccc(O)cc4CC[C@H]3[C@@H]1CC[C@@H]2O" 0%

What does the data say about its Hepatotoxicity (moderate)? Entry: "O=C(O)Cc1ccccc1Oc1ccc(Cl)cc1Cl" 1%

What does the data say about its Hepatotoxicity (moderate)? Entry: COC(=O)C1=C(C)NC(C)=C(C(=O)OC(C)C)C1c1cccc2nonc12 (stereo not drawn) 8.3%

What does the data say about its Hepatotoxicity (moderate)? Entry: NC(=O)OCC(COC(N)=O)c1ccccc1 [FELBAMATE] 7.1%

What does the data say about its Hepatotoxicity (moderate)? Entry: "CC(C)C[C@H](NC(=O)[C@@H](O)[C@H](N)Cc1ccccc1)C(=O)O" 2.4%

###

assay_setup: human
reported_endpoint: Hepatotoxicity (choleostasis)
Lab note: record the figure alone, no unit after it.

molecule	Hepatotoxicity (choleostasis)
CC(C)c1c(C(=O)Nc2ccccc2)c(-c2ccccc2)c(-c2ccc(F)cc2)n1CC[C@@H](O)C[C@@H](O)CC(=O)O	6
CCCNCC(O)COc1ccccc1C(=O)CCc1ccccc1 (centres undefined)	6
CCCCCOC(=O)Nc1nc(=O)n([C@@H]2O[C@H](C)[C@@H](O)[C@H]2O)cc1F	0
Cc1onc(-c2ccccc2)c1C(=O)N[C@@H]1C(=O)N2[C@@H]1SC(C)(C)[C@@H]2C(=O)O	4
Cc1ccc2c(-c3ccccc3)nc(=O)n(C(C)C)c2c1	0

What does the data say about its Hepatotoxicity (choleostasis)? Entry: CC(Cc1ccccc1)NCc1ccccc1Cl (centres undefined) 0

What does the data say about its Hepatotoxicity (choleostasis)? Entry: "CS(=O)(=O)c1ccc([C@@H](O)[C@@H](CO)NC(=O)C(Cl)Cl)cc1" 0

What does the data say about its Hepatotoxicity (choleostasis)? Entry: "CC[C@@]1(O)C[C@H](O[C@H]2C[C@H](N(C)C)[C@H](O[C@H]3C[C@H](O)[C@H](O[C@H]4CCC(=O)[C@H](C)O4)[C@H](C)O3)[C@H](C)O2)c2c(cc3c(c2O)C(=O)c2c(O)cccc2C3=O)[C@H]1C(=O)OC" 0

What does the data say about its Hepatotoxicity (choleostasis)? Entry: COc1cc([C@@H]2c3cc4c(cc3[C@@H](O[C@@H]3O[C@@H]5CO[C@@H](c6cccs6)O[C@H]5[C@H](O)[C@H]3O)[C@H]3COC(=O)[C@H]23)OCO4)cc(OC)c1O [TENIPOSIDE] 0

What does the data say about its Hepatotoxicity (choleostasis)? Entry: "COc1ccc2c(C(=S)N(C)CC(=O)O)cccc2c1C(F)(F)F" 0

What does the data say about its Hepatotoxicity (choleostasis)? Entry: CN(C)CCC=C1c2ccccc2COc2ccccc21 [DOXEPIN] 1

What does the data say about its Hepatotoxicity (choleostasis)? Entry: "CCCCN/C(=C1/C=C(Cl)C=CC1=O)c1ccccc1Cl" 0

What does the data say about its Hepatotoxicity (choleostasis)? Entry: CCCCOCC(CN1C(=O)NC(=O)C(CC)(c2ccccc2)C1=O)OC(N)=O (centres undefined) [FEBARBAMATE] 1

What does the data say about its Hepatotoxicity (choleostasis)? Entry: "Nc1nc2ccc(OC(F)(F)F)cc2s1" 0

###

Each item that follows carries a reported Hepatotoxicity (acute).
assay_setup: human, serum

What does the data say about its Hepatotoxicity (acute)? Entry: Cl[C@H]1[C@H](Cl)[C@@H](Cl)[C@@H](Cl)[C@H](Cl)[C@H]1Cl [LINDANE] 2

What does the data say about its Hepatotoxicity (acute)? Entry: C1CNCCN1 [PIPERAZINE] 2

What does the data say about its Hepatotoxicity (acute)? Entry: NC(N)=Nc1nc(CSCCN/C=N/S(=O)(=O)c2ccc(Br)cc2)cs1 [EBROTIDINE] 2

###

protocol_description: Highest frequency of acute liver toxicity observed during clinical trials, expressed as a percentage. [column '% AIGUE' in source]
assay_setup: human
Each item that follows carries a reported Hepatotoxicity (acute).
State the answer as a number, implicitly in %.

Example results:
molecule	observed
O=C1NC(=S)NC(=O)C1C(=O)Nc1ccccc1	3.8
CN1CCC(=C2c3ccccc3CC(=O)c3sccc32)CC1	0
C=CC(N)CCC(=O)O (stereo not given)	0
O=C(NO)c1ccc(O)c(O)c1	0

Lab note: next molecule to report on.
What does the data say about its Hepatotoxicity (acute)? Entry: "CC1(C)S[C@@H]2[C@H](N3C(=O)[C@@H](c4ccccc4)NC3(C)C)C(=O)N2[C@H]1C(=O)O" 0

###

protocol_description: Highest frequency of moderate liver toxicity observed during clinical trials, expressed as a percentage. [column '% BIOL' in source]
assay_setup: human
Could you mark each record YES if its Hepatotoxicity (moderate) falls strictly under 7%, and NO if it equals or exceeds it?

compound	class_assignment
CC1(C)CC(=O)N(CCCCN2CCN(c3ncccn3)CC2)C(=O)C1 [GEPIRONE]	YES
O=C(COCCOCCOCC(=O)Nc1c(I)cc(I)c(C(=O)O)c1I)Nc1c(I)cc(I)c(C(=O)O)c1I	YES

Here is the next item to consider.
Strictly below 7%: is that where Hepatotoxicity (moderate) of CCCCC1C(=O)NN(c2ccccc2)C1=O (centres undefined) sits? YES

###

assay_setup: human
Each item that follows carries a reported Hepatotoxicity (cytolytic).
Lab note: record the figure alone, no unit after it.

Example results:
substance	Hepatotoxicity (cytolytic)
CISPLATIN	2
INTERFERON ALFA-N1	0
NEDAPLATIN	0
ETANERCEPT	0
ETARACIZUMAB	0

Lab note: next substance to report on.
What does the data say about its Hepatotoxicity (cytolytic)? Entry: SODIUM NITROPRUSSIDE 0

###

assay_setup: human, serum
Each item that follows carries a reported Hepatotoxicity (acute).
Lab note: record the figure alone, no unit after it.

molecule	Hepatotoxicity (acute)
CO[C@@H]1C[C@](C)(O)Cc2cc3c(c(O)c21)C(=O)c1c(O)cc2c(c1C3=O)O[C@@H]1O[C@@]2(C)[C@H](O)[C@@H](N(C)C)[C@@H]1O [MENOGARIL]	0
Nc1nc(F)nc2c1ncn2[C@@H]1O[C@H](CO)[C@@H](O)[C@@H]1O [FLUDARABINE]	2
CC(C)NCC1CCc2cc(CO)c([N+](=O)[O-])cc2N1 (stereo not given) [OXAMNIQUINE]	0

What does the data say about its Hepatotoxicity (acute)? Entry: CCOC(=O)OC(C)OC(=O)[C@@H]1N2C(=O)[C@@H](NC(=O)[C@H](N)c3ccccc3)[C@H]2SC1(C)C (stereo not given in full) [BACAMPICILLIN] 0

What does the data say about its Hepatotoxicity (acute)? Entry: C=CCNc1nc(NCC=C)nc(N2CCN(C(c3ccc(F)cc3)c3ccc(F)cc3)CC2)n1 [ALMITRINE] 1

What does the data say about its Hepatotoxicity (acute)? Entry: O=C(NCN1CCOCC1)c1cnccn1 [MORINAMIDE] 2

What does the data say about its Hepatotoxicity (acute)? Entry: CC(OC(=O)OC1CCCCC1)OC(=O)C1=C(CSc2nnnn2CCN(C)C)CS[C@@H]2[C@H](NC(=O)Cc3csc(N)n3)C(=O)N12 (stereo not given in full) 0

What does the data say about its Hepatotoxicity (acute)? Entry: CCCC(C)(COC(N)=O)COC(=O)NC(C)C (stereo not given) [CARISOPRODOL] 1

What does the data say about its Hepatotoxicity (acute)? Entry: CCC(C)(C)NCC(O)COc1ccccc1C(=O)CCc1ccccc1 (stereo not given) [DIPRAFENONE] 1

What does the data say about its Hepatotoxicity (acute)? Entry: Cc1[nH]c(=O)c(C#N)cc1-c1ccncc1 [MILRINONE] 0

What does the data say about its Hepatotoxicity (acute)? Entry: CO/N=C(\C(=O)N[C@@H]1C(=O)N2C(C(=O)OCOC(=O)C(C)(C)C)=C(/C=C\c3scnc3C)CS[C@H]12)c1csc(N)n1 [CEFDITOREN PIVOXIL] 0
